# Measured on: Kras and SOS1 (biotin-tagged human Kras loaded with GDP, His-tagged human SOS1) (Homo sapiens, UniProt P01116, G12D)
# Construct: made in house; host or cells: E. coli (stated for Kras only)
# Sequence (P01116 1-188 isoform P01116-2 G12D): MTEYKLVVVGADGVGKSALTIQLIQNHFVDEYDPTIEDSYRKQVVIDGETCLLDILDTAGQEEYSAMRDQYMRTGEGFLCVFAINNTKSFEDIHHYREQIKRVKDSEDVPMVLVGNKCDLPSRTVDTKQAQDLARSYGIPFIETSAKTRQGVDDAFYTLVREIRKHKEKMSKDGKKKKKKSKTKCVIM
# Assay summary: Protein-protein interaction inhibition between Kras and SOS1 (KrasGl2D-SOS PPI) using AlphaScreen
# Assay type: binding
# Particulars: AlphaScreen; biotin-tagged human Kras loaded with GDP, His-tagged human SOS1; read-out: KRAS G12D-SOS PPI IC50
Positions of bridges follow the written chain, without caps; N, C: chain ends. Non-standard residues stand in square brackets, D forms with d. Residues, ends and D or L forms follow the SMILES beside them. *: point of attachment. hPhe(3-Cl-4-CF3) = N[C@@H](CCc1ccc(C(F)(F)F)c(Cl)c1)C(=O)O; NMePhe(4-CF3) = CN[C@@H](Cc1ccc(C(F)(F)F)cc1)C(=O)O; 3Oxa8azabicyclo(3.2.1)octane = C1CC2COCC1N2*; NMeAbu(4,4,4-F3) = CN[C@@H](CC(F)(F)F)C(=O)O; Pro(4,4-F2) = O=C(O)[C@@H]1CC(F)(F)CN1; NMeCha = CN[C@@H](CC1CCCCC1)C(=O)O; Hyp = O=C(O)[C@@H]1C[C@@H](O)CN1; NMeChg = CN[C@H](C(=O)O)C1CCCCC1; NMeD = CN[C@@H](CC(=O)O)C(=O)O; NMeL = CN[C@@H](CC(C)C)C(=O)O; Pyrrolidide = C1CCN(*)C1; Ac5c = NC1(C(=O)O)CCCC1; Sar = CNCC(=O)O
Each entry below lists one item and its recorded IC50 value.
Quantity kind: IC50 (nM)

>>> endpoint_result("CC[C@H](C)[C@@H]1NC(=O)[C@H](CC(C)C)N(C)C(=O)C[C@@H](C(=O)N2C3CCC2COC3)N(C)C(=O)[C@H](C2CCCCC2)N(C)C(=O)C2(CCCC2)NC(=O)[C@@H]2CC(F)(F)CN2C(=O)[C@H](CCc2ccc(C(F)(F)F)c(Cl)c2)NC(=O)CN(C)C(=O)[C@H](CC2CCCCC2)N(C)C(=O)CN(C)C(=O)CN(C)C1=O [Compound 1179] ([NMeL]I[Sar][Sar][NMeCha][Sar][hPhe(3-Cl-4-CF3)][Pro(4,4-F2)][Ac5c][NMeChg][NMeD]-{3Oxa8azabicyclo(3.2.1)octane}; lactam N-11)")
0.52
>>> endpoint_result("CCO[C@@H]1C[C@H]2C(=O)NC3(CCCC3)C(=O)N(C)[C@@H](C3CCCCC3)C(=O)N(C)[C@H](C(=O)N3CCCC3)CC(=O)N(C)[C@@H](CC(F)(F)F)C(=O)N[C@@H]([C@@H](C)CC)C(=O)N(C)CC(=O)N(C)CC(=O)N(C)[C@@H](Cc3ccc(C(F)(F)F)cc3)C(=O)N(C)CC(=O)N[C@@H](CCc3ccc(C(F)(F)F)c(Cl)c3)C(=O)N2C1 [Compound 1139] ([NMeAbu(4,4,4-F3)]I[Sar][Sar][NMePhe(4-CF3)][Sar][hPhe(3-Cl-4-CF3)][Hyp](Et)[Ac5c][NMeChg][NMeD]-Pyrrolidide; lactam N-11)")
0.59

* * *

# Measured on: Kras and SOS1 (biotin-tagged human Kras loaded with GDP, His-tagged human SOS1) (Homo sapiens, UniProt P01116, G12D)
# Construct: made in house; host or cells: E. coli (stated for Kras only)
# Assay summary: Protein-protein interaction inhibition between Kras and SOS1 (KrasGl2D-SOS PPI) using AlphaScreen
# Assay type: binding
# Particulars: AlphaScreen; biotin-tagged human Kras loaded with GDP, His-tagged human SOS1; read-out: KRAS G12D-SOS PPI IC50
Starred links: 1 amine or outer side, 2 acyl side, 3 side chain; linkers in the order of their positions; H or OH if unused. Positions of bridges follow the written chain, without caps; N, C: chain ends. Non-standard residues stand in square brackets, D forms with d. Residues, ends and D or L forms follow the SMILES beside them. *: point of attachment. hPhe(3,5-F2-4-CF3) = N[C@@H](CCc1cc(F)c(C(F)(F)F)c(F)c1)C(=O)O; hPhe(3-Cl-4-CF3) = N[C@@H](CCc1ccc(C(F)(F)F)c(Cl)c1)C(=O)O; NMePhe(4-Cl) = CN[C@@H](Cc1ccc(Cl)cc1)C(=O)O; NMePhe(4-Me) = CN[C@@H](Cc1ccc(C)cc1)C(=O)O; X8 = O=C([C@H](Cc1cc(I)ccc1F)N[*:1])[*:2]; NMeGly(cPent) = CN[C@H](C(=O)O)C1CCCC1; NMeCha = CN[C@@H](CC1CCCCC1)C(=O)O; NMeChg = CN[C@H](C(=O)O)C1CCCCC1; NMeD = CN[C@@H](CC(=O)O)C(=O)O; NMeL = CN[C@@H](CC(C)C)C(=O)O; NMeNva = CCC[C@H](NC)C(=O)O; NMeV = CN[C@H](C(=O)O)C(C)C; d(β3hA) = C[C@@H](N)CC(=O)O; NMeA = CN[C@@H](C)C(=O)O; NMeAib = CNC(C)(C)C(=O)O; Nle = CCCC[C@H](N)C(=O)O; Piperidide = C1CCN(*)CC1; Pyrrolidide = C1CCN(*)C1; dNMeA = CN[C@H](C)C(=O)O; Ac5c = NC1(C(=O)O)CCCC1; Sar = CNCC(=O)O
Friendly reminder: IC50 below 1 nM is true, at or above is false.

>>> class("CCC[C@H]1C(=O)N[C@@H]([C@@H](C)CC)C(=O)N(C)CC(=O)N(C)CC(=O)N(C)[C@@H](Cc2ccc(C)cc2)C(=O)N(C)CC(=O)N[C@@H](CCc2cc(F)c(C(F)(F)F)c(F)c2)C(=O)N2CCC[C@H]2C(=O)NC2(CCCC2)C(=O)N(C)[C@@H](C2CCCCC2)C(=O)N(C)[C@H](C(=O)N2CCCC2)CC(=O)N1C [Compound 1197] ([NMeNva]I[Sar][Sar][NMePhe(4-Me)][Sar][hPhe(3,5-F2-4-CF3)]P[Ac5c][NMeChg][NMeD]-Pyrrolidide; lactam N-11)")
"true"
>>> class("CC[C@H](C)[C@@H]1NC(=O)[C@H](C)N(C)C(=O)C[C@@H](C)NC(=O)[C@H](C(C)C)N(C)C(=O)C2(CCCC2)NC(=O)[C@@H]2CCCN2C(=O)[C@H](CCc2ccc(C(F)(F)F)c(Cl)c2)NC(=O)[C@@H](C)N(C)C(=O)[C@H](CC2CCCCC2)N(C)C(=O)[C@@H]2CCCN2C(=O)CN(C)C1=O [Compound 516] (cyclo([Ac5c][NMeV][d(β3hA)][NMeA]I[Sar]P[NMeCha][dNMeA][hPhe(3-Cl-4-CF3)]P))")
"false"
>>> class("CC[C@H](C)[C@@H]1NC(=O)[C@H](CC(C)C)N(C)C(=O)C[C@@H](C(=O)N2CCCC2)N(C)C(=O)[C@H](C2CCCC2)N(C)C(=O)C2(CCCC2)NC(=O)[C@@H]2CCCN2C(=O)[C@H](CCc2ccc(C(F)(F)F)c(Cl)c2)NC(=O)CN(C)C(=O)[C@H](Cc2ccc(C)cc2)N(C)C(=O)CN(C)C(=O)CN(C)C1=O [Compound 1761] ([NMeL]I[Sar][Sar][NMePhe(4-Me)][Sar][hPhe(3-Cl-4-CF3)]P[Ac5c][NMeGly(cPent)][NMeD]-Pyrrolidide; lactam N-11)")
"true"
>>> class("CCCC[C@@H]1NC(=O)[C@H](Cc2cc(I)ccc2F)NC(=O)CN(C)C(=O)[C@H](Cc2ccc(Cl)cc2)N(C)C(=O)CN(C)C(=O)CN(C)C(=O)[C@H]([C@@H](C)CC)NC(=O)[C@H](CC(C)C)N(C)C(=O)C[C@@H](C(=O)N2CCCCC2)N(C)C(=O)[C@H](CC(C)C)NC(=O)C(C)(C)N(C)C1=O [Compound 1286] ([NMeL]I[Sar][Sar][NMePhe(4-Cl)][Sar][X8][Nle][NMeAib]L[NMeD]-Piperidide; lactam N-11)")
"false"
